Ref: patent US20230381170A1

# target.under.test: r(G4C2)8 and hnRNP H1 complex
# experiment.notes: TR-FRET hnRNP H binding assay
# details: inhibiting r(G4C2)8 and hnRNP H1 complex formation; 7 in the absence of Rnase L
Provide the reported pIC50 of each item.
Answers are plain numbers, as −log10 of the molar value.

Consider the worked cases shown below.
molecule: CCOC(=O)C1=C(Nc2ccccc2)S/C(=C\c2ccc(OCCOCCOCCOCCNC(=O)CCC(=O)N(CCOCCOCCOc3ccc4[nH]c5c(C)c6ccncc6c(C)c5c4c3)CCOCCOCCOc3ccc4[nH]c5c(C)c6ccncc6c(C)c5c4c3)c(O)c2)C1=O [Compound 7]
pIC50: 5.62

molecule: CC(=O)N(CCOCCOCCOc1ccc2[nH]c3c(C)c4ccncc4c(C)c3c2c1)CCOCCOCCOc1ccc2[nH]c3c(C)c4ccncc4c(C)c3c2c1 [Compound 6]
pIC50: 5.64

Now take the following molecule into account.
Sample Cc1c2ccncc2c(C)c2c1[nH]c1ccc(OCCOCCOCCNCCOCCOCCOc3ccc4[nH]c5c(C)c6ccncc6c(C)c5c4c3)cc12 [Compound 3] — what was its pIC50?
6.05
